system tested: T1, Claudin 18.2 (CLDN18.2), expressed on CHOS-CLDN 18.2 / HEK293-CLDN 18.2 / HCC827-CLDN 18.2 cells (human, UniProt P56856-2 1-261)
T1 construct: whole, on cells; The species is not repeated for the CHOS-CLDN 18.2 cells; also called claudin-18A2
protocol summary: FACS, CHOS-CLDN18.2 cells
metric name: max
Number only, please.

QP024025 (antibody, human IgG1, V domains shown, also called IMAB362; 175D10(IMAB362)) VH: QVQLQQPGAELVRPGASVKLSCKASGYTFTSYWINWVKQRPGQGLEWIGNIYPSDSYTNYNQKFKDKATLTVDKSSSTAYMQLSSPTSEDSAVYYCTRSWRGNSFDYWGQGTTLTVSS VL: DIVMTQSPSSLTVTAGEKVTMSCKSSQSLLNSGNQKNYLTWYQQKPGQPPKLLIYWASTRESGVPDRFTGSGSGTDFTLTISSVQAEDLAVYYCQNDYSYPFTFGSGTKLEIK | 88600

Now look at this one.
Short answer for QP14451440 (antibody, human IgG1, kappa, V domains shown, Humanized from QP192193; also called QP14401445) VH: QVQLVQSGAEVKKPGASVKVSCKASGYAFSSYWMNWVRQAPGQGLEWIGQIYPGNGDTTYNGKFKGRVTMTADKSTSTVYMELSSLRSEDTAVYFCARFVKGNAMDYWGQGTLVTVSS VL: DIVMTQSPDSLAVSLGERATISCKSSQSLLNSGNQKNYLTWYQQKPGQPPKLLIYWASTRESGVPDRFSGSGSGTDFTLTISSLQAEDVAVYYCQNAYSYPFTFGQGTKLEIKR : max was 169000
